Listed below: CC50 values for each entry.
- test.method.notes: in vitro
- settings: human
parameter: CC50

| molecule | assay.value |
| --- | --- |
| CC(=O)O[C@H]1[C@@H]2O[C@]2([C@H](C)[C@H]2CC(C)=C(C)C(=O)O2)[C@@]2(C)CC[C@H]3[C@@H](C[C@H]4O[C@]45[C@@H](O)C=CC(=O)[C@]35C)[C@@]12O [Compound 13, physagulin F] | 15.2 µM |
| CC(=O)O[C@H]1C=C([C@H](C)[C@H]2CC(C)=C(C)C(=O)O2)[C@@]2(C)CC[C@H]3[C@@H](C[C@@H](O)[C@@]4(O)CC=CC(=O)[C@]34C)[C@]12O [Compound 8, withaminimin] | > 100 µM |
| CC(=O)O[C@H]1C[C@@](O)([C@H](C)[C@H]2CC(C)=C(C)C(=O)O2)[C@@]2(C)CC[C@H]3[C@@H](C[C@H]4O[C@]45CC=CC(=O)[C@]35C)[C@@]12O [Compound 5, physagulide I] | > 100 µM |
| C=C1C(=O)O[C@@H]([C@@H](C)[C@]2(O)C[C@H](OC(C)=O)[C@]3(O)[C@@H]4C[C@H]5O[C@]56CC=CC(=O)[C@]6(C)[C@H]4CC[C@@]32C)C[C@]1(C)O [Compound 2] | > 100 µM |
| CC(=O)O[C@H]1[C@@H]2O[C@]2([C@H](C)[C@H]2CC(C)=C(C)C(=O)O2)[C@@]2(C)CC[C@H]3[C@@H](C[C@@H](O)[C@@]4(O)CC=CC(=O)[C@]34C)[C@@]12O [Compound 12, physagulin C] | > 100 µM |
| CC(=O)O[C@H]1[C@@H]2O[C@]2([C@H](C)[C@H]2CC(C)=C(C)C(=O)O2)[C@@]2(C)CC[C@H]3[C@@H](C[C@@H](O)[C@]45C=C[C@H](OO4)C(=O)[C@]35C)[C@@]12O [Compound 4] | > 100 µM |
| CC(=O)O[C@H]1C[C@H]([C@H](C)[C@H]2CC(C)=C(C)C(=O)O2)[C@@]2(C)CC[C@H]3[C@@H](C[C@@H](O)[C@@]4(O)CC=CC(=O)[C@]34C)[C@@]12O [Compound 10, physagulin J] | > 100 µM |
| CC(=O)O[C@H]1C=C([C@H](C)[C@H]2CC(C)=C(C)C(=O)O2)[C@@]2(C)CC[C@H]3[C@@H](C[C@H]4O[C@]45CC=CC(=O)[C@]35C)[C@@]12O [Compound 7, physagulin A] | 16 µM |
| CC(=O)O[C@H]1C=C([C@H](C)[C@H]2CC(C)=C(C)C(=O)O2)[C@@]2(C)CC[C@H]3[C@@H](C[C@@H](O)[C@]45C=C[C@H](OO4)C(=O)[C@]35C)[C@@]12O [Compound 3] | > 100 µM |

----------
- test.method.notes: in vitro
- settings: human

| molecule | CC50 |
| --- | --- |
| CC(=O)O[C@H]1C=C([C@H](C)[C@H]2CC(C)=C(C)C(=O)O2)[C@@]2(C)CC[C@H]3[C@@H](C[C@@H](O)[C@@]4(Cl)CC=CC(=O)[C@]34C)[C@]12O | > 100 µM |
| C[C@H](Cn1cnc2c(N)ncnc21)OCP(=O)(O)O [TFV, tenofovir, reference compound] | > 100 µM |
| C=C1C(=O)O[C@@H]([C@@H](C)[C@]2(O)C[C@H](OC(C)=O)[C@]3(O)[C@@H]4C[C@H]5O[C@]56CC=CC(=O)[C@]6(C)[C@H]4CC[C@@]32C)C[C@@]1(C)O | > 100 µM |

Hello, the source for this data is paper PMC8946265, in case you need it.
